# pIC50 annotations
test system: Human immunodeficiency virus 1; assay: Antiviral activity against HIV1 NLBal infected JC53BL cells assessed as inhibition of replication by luciferase reporter assay; type: functional, organism-based; conditions: Human immunodeficiency virus 1, NLBal
pIC50: −log10 of the molar value.
QUANTITY_NAME: pIC50

CCO[C@H]1Cc2cc(C(F)(F)F)ccc2[C@@H]1N1CCN(C2C[C@@H]3CN(C(=O)c4c(C)ccnc4C)C[C@@H]3C2)C[C@@H]1C (some centres undefined) ... 6.45
CCCC[C@H]1CN(CC2CCOCC2)C(=O)OC12CCN(C1C[C@@H]3CN(C(=O)c4c(C)ncnc4C)C[C@@H]3C1)CC2 (some centres undefined) ... 6.58
CCCC[C@H]1CN(C[C@H]2CC[C@H](OCC)CC2)C(=O)OC12CCN(C1C[C@@H]3CN(C(=O)c4c(C)ccnc4C)C[C@@H]3C1)CC2 (some centres undefined) ... 8.40
CCO[C@H]1Cc2cc(C(F)(F)F)ccc2[C@@H]1N1CCN(C2C[C@@H]3CN(C(=O)c4c(C)cc(C#N)nc4C)C[C@@H]3C2)C[C@@H]1C (some centres undefined) ... 7.23
CCCC[C@H]1CN(CC2CCOCC2)C(=O)OC12CCN(C1C[C@@H]3CN(C(=O)c4c(C)cc(C#N)nc4C)C[C@@H]3C1)CC2 (some centres undefined) ... 8.05
CCCC[C@H]1CN(CC2CCOCC2)C(=O)OC12CCN(C1(C)C[C@H]3CN(C(=O)c4c(C)cc(C#N)nc4C)C[C@H]3C1)CC2 (some centres undefined) ... 7.74
CCCC[C@H]1CN(C[C@H]2CC[C@H](OC(C)C)CC2)C(=O)OC12CCN(C1C[C@@H]3CN(C(=O)c4c(C)ncnc4C)C[C@@H]3C1)CC2 (some centres undefined) ... 7.92
CCCC[C@H]1CN(C[C@H]2CC[C@H](OCC)CC2)C(=O)OC12CCN(C1C[C@@H]3CN(C(=O)c4c(C)ncnc4C)C[C@@H]3C1)CC2 (some centres undefined) ... 7.72
CCCC[C@H]1CN(C[C@H]2CC[C@H](OC3CC3)CC2)C(=O)OC12CCN(C1C[C@@H]3CN(C(=O)c4c(C)ncnc4C)C[C@@H]3C1)CC2 (some centres undefined) ... 7.92

---

biological target: UniProt P51681; assay: Displacement of […] from CCR5 receptor receptors expressed in CHO cells
QUANTITY_NAME: IC50 (nM)

CCCC[C@H]1CN(CC2CCOCC2)C(=O)OC12CCN(C1(C)CCN(C(=O)c3c(C)ncnc3C)CC1)CC2 ... 4
CCO[C@H]1Cc2cc(C(F)(F)F)ccc2[C@@H]1N1CCN(C2C[C@@H]3CN(C(=O)c4c(C)ncnc4C)C[C@@H]3C2)C[C@@H]1C (some centres undefined) ... 92
CCO[C@H]1Cc2cc(C(F)(F)F)ccc2[C@@H]1N1CCN(C2C[C@@H]3CN(C(=O)c4c(C)cc(C#N)nc4C)C[C@@H]3C2)C[C@@H]1C (some centres undefined) ... 45
CCCC[C@H]1CN(CC2CCOCC2)C(=O)OC12CCN(C1(C)C[C@H]3CN(C(=O)c4c(C)cc(C#N)nc4C)C[C@H]3C1)CC2 (some centres undefined) ... 61

---

molecular target: C-C chemokine receptor type 5 (Homo sapiens, UniProt P51681); assay: Displacement of […] from CCR5 receptor receptors expressed in CHO cells
Sequence (P51681 whole entry): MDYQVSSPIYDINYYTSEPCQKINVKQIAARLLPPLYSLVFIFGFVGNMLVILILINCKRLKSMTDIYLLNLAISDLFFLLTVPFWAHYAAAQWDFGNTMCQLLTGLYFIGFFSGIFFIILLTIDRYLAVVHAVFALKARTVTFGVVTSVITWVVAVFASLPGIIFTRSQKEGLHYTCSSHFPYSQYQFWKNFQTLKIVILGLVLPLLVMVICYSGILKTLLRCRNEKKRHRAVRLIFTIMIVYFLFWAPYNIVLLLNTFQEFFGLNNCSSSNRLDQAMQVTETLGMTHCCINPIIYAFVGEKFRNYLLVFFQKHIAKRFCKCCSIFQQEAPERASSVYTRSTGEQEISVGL
pIC50: −log10 of the molar value.
QUANTITY_NAME: pIC50

CCCC[C@H]1CN(CC2CCOCC2)C(=O)OC12CCN(C1(C)C[C@H]3CN(C(=O)c4c(C)ncnc4C)C[C@H]3C1)CC2 (stereo not given in full) ... 7.60
CCCC[C@H]1CN(C[C@H]2CC[C@H](OC(C)C)CC2)C(=O)OC12CCN(C1C[C@@H]3CN(C(=O)c4c(C)ncnc4C)C[C@@H]3C1)CC2 (stereo not given in full) ... 7.64
CCCC[C@H]1CN(C[C@H]2CC[C@H](OC3CC3)CC2)C(=O)OC12CCN(C1C[C@@H]3CN(C(=O)c4c(C)ncnc4C)C[C@@H]3C1)CC2 (stereo not given in full) ... 7.57
CCCC[C@H]1CN(C[C@H]2CC[C@H](OCC)CC2)C(=O)OC12CCN(C1C[C@@H]3CN(C(=O)c4c(C)ccnc4C)C[C@@H]3C1)CC2 (stereo not given in full) ... 7.47
